Just for reference, paper PMC9858449 is where these values come from.

Here the recorded IC50 is given for each entry.
# Tested on: HeLa cells
# procedureSummary: MTT cytotoxicity assay, HeLa
# conditionSet: Homo sapiens, 48 h, read-out: In vitro Cytotoxicity IC50 HeLa
readout: IC50 (µM)

{"columns": ["smilesNotation", "valueReported"],
 "data": [
  ["Cc1ccc(NC(=S)NNC(=O)c2nnn(Cc3nc4ccccc4[nH]3)c2C)cc1", 58.1],
  ["Cc1c(C(=O)N/N=C/c2cccc(Br)c2)nnn1Cc1nc2ccccc2[nH]1", 48.8],
  ["Cc1c(C(=O)NNC(=O)Nc2cccc3ccccc23)nnn1Cc1nc2ccccc2[nH]1", 27.6],
  ["Cc1c(C(=O)NNC(=O)Nc2ccccc2)nnn1Cc1nc2ccccc2[nH]1", 31.6]
]}
